method summary: Compound stability in human liver microsomes
Type: in vitro ADME
condition set: pH 7.4, in vivo CLint extrapolated
Cut-off 80 mL/min/kg on CLint scaled: below means criterion met, at or above means criterion not met.

Task item: Here's an entry: "Cc1c2ccc(Nc3ncc(Cl)c(NC4CCN(c5ccc(C#N)cn5)CC4)n3)cc2nn1C" . Is its CLint scaled below 80 mL/min/kg?
Reply: criterion not met

Task item: Here's an entry: CCC1CN(c2ccc(C#N)nn2)CCC1Nc1nc(Nc2cc(C)n(C)n2)ncc1Cl (stereo not drawn) . Is its CLint scaled below 80 mL/min/kg?
Reply: criterion met

Task item: Here's an entry: "Cn1cc2ccc(Nc3ncc(Cl)c(NC4CCN(c5ccc(C#N)nn5)CC4)n3)cc2n1" . Is its CLint scaled below 80 mL/min/kg?
Reply: criterion met

Task item: Here's an entry: CCC1CN(c2ccc(C#N)nn2)CCC1Nc1ccnc(Nc2cc(C)n(C)n2)n1 (stereo not drawn) . Is its CLint scaled below 80 mL/min/kg?
Reply: criterion met

Task item: Here's an entry: CN(c1nc(Nc2cnn(C)c2)ncc1Cl)C1CCN(c2ccc(C#N)cn2)C1 (stereo not drawn) . Is its CLint scaled below 80 mL/min/kg?
Reply: criterion not met

Task item: Here's an entry: "CN(c1nc(Nc2cnn(C)c2)ncc1Cl)C1CCN(c2ccc(C#N)cn2)CC1" . Is its CLint scaled below 80 mL/min/kg?
Reply: criterion met

----------
For each entry below, report its clearance (CL) value.
method summary: Pharmacokinetics after intravenous and oral administration in rats
Assay type: in vivo
condition set: iv dosing, 1 mg/kg
Report the value in mL/min/kg with no unit label.

Task item: Which measured clearance (CL) value corresponds to CCC1CN(c2ccc(C#N)cn2)CCC1N(C)c1nc(Nc2ccc3c(C)n(C)nc3c2)ncc1Cl (centres unmarked) ?
Reply: 18.3

Task item: Which measured clearance (CL) value corresponds to "Cc1nn(C)cc1Nc1ncc(Cl)c(NC2CCN(c3ccc(C#N)nn3)CC2)n1" ?
Reply: 17.7

Task item: Which measured clearance (CL) value corresponds to "Cc1cc(Nc2ncc(Cl)c(N(C)C3CCN(c4ccc(C#N)cn4)CC3)n2)nn1C" ?
Reply: 48.8

Task item: Which measured clearance (CL) value corresponds to "Cc1nn(C)cc1Nc1ncc(Cl)c(NC2CCN(c3ccc(C#N)cn3)CC2)n1" ?
Reply: 9.67

Task item: Which measured clearance (CL) value corresponds to "Cc1cnc(Nc2cnn(C)c2)nc1N(C)C1CCN(c2ccc(C#N)cn2)CC1" ?
Reply: 20.2

Task item: Which measured clearance (CL) value corresponds to CCC1CN(c2ccc(C#N)nn2)CCC1Nc1nc(Nc2ccc3c(C)n(C)nc3c2)ncc1Cl (centres unmarked) ?
Reply: 18.3

Task item: Which measured clearance (CL) value corresponds to CCC1CN(c2ccc(C#N)nn2)CCC1N(C)c1nc(Nc2ccc3c(C)n(C)nc3c2)ncc1Cl (centres unmarked) ?
Reply: 43.8

Task item: Which measured clearance (CL) value corresponds to CN(c1nc(Nc2cnn(C)c2)ncc1Cl)C1CCN(c2ccc(C#N)cn2)C1 (centres unmarked) ?
Reply: 37.7

----------
method summary: Compound stability in rat liver microsomes
Type: in vitro ADME
condition set: pH 7.4, in vivo CLint extrapolated
measure name: CLint scaled (L/h/kg)
Report the value in L/h/kg with no unit label.

Task item: Which measured CLint scaled value corresponds to CCC1CN(c2ccc(C#N)cn2)CCC1Nc1nc(Nc2cc(C)n(C)n2)ncc1Cl (centres unmarked) [Ex. 21] ?
Reply: 3.84

Task item: Which measured CLint scaled value corresponds to Cc1nn(C)cc1Nc1ncc(Cl)c(N(C)C2CCN(c3ccc(C#N)cn3)CC2)n1 [Ex. 14] ?
Reply: 87

Task item: Which measured CLint scaled value corresponds to Cc1c2ccc(Nc3ncc(Cl)c(NC4CCN(c5ccc(C#N)nn5)CC4)n3)cc2nn1C [Ex. 12] ?
Reply: 7.87

Task item: Which measured CLint scaled value corresponds to CCC1CN(c2ccc(C#N)nn2)CCC1Nc1ccnc(Nc2cc(C)n(C)n2)n1 (centres unmarked) [Ex. 22] ?
Reply: 3.28

Task item: Which measured CLint scaled value corresponds to Cc1cc(Nc2ncc(Cl)c(NC3CCN(c4ccc(C#N)nn4)CC3)n2)nn1C [Ex. 13] ?
Reply: 15.4

Task item: Which measured CLint scaled value corresponds to Cc1cc(Nc2ncc(Cl)c(NC3CCN(c4ccc(C#N)cn4)CC3)n2)nn1C [Ex. 2] ?
Reply: 8.42

Task item: Which measured CLint scaled value corresponds to Cc1c2ccc(Nc3ncc(Cl)c(N(C)C4CCN(c5ccc(C#N)nn5)CC4)n3)cc2nn1C [Ex. 24] ?
Reply: 20.9

Task item: Which measured CLint scaled value corresponds to Cc1cnc(Nc2cnn(C)c2)nc1N(C)C1CCN(c2ccc(C#N)cn2)CC1 [Ex. 6] ?
Reply: 34.6

Task item: Which measured CLint scaled value corresponds to CN(c1nc(Nc2cnn(C)c2)ncc1Cl)C1CCN(c2ccc(C#N)cn2)CC1 [Ex. 5] ?
Reply: 9.03

Task item: Which measured CLint scaled value corresponds to CCC1CN(c2ccc(C#N)cn2)CCC1Nc1nc(Nc2ccc3c(C)n(C)nc3c2)ncc1Cl (centres unmarked) [Ex. 23] ?
Reply: 7.29

Task item: Which measured CLint scaled value corresponds to CCC1CN(c2ccc(C#N)cn2)CCC1N(C)c1nc(Nc2cc(C)n(C)n2)ncc1Cl (centres unmarked) [Ex. 18] ?
Reply: 3.96
